I'd be grateful if you could share measured IC50 for these entries.
Test system: EM-2;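 also: growth inhibition of EM-2 cells, read out with a cell viability assay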
procedure.text: cells
Format: functional, cell-based
condition: Homo sapiens
Description: SANGER: Inhibition of human EM-2 cell growth in a cell viability assay.
Answers are plain numbers, in nM.

> print(dat)
                            smiles.notation  measure.name  data.value
1  COc1ccc(-c2ccc3c(N4CCOC[C@@H]4C)nc(N4CCOC[C@@H]4C)nc3n2)cc1CO          IC50         342
2  Cc1cc(Nc2cc(N3CCN(C)CC3)nc(Sc3ccc(NC(=O)C4CC4)cc3)n2)n[nH]1          IC50         266
3  Nc1ccn([C@@H]2O[C@H](CO)[C@@H](O)[C@@H]2O)c(=O)n1          IC50         211

Form field: IC50 recorded for CCC(=O)N1CCN(c2ccc(-n3c(=O)ccc4cnc5ccc(-c6cnc7ccccc7c6)cc5c43)cc2C(F)(F)F)CC1 with EM-2 (enter value) 115

---

Tested on: K5
procedure.text: cells
Format: functional, cell-based, Homo sapiens
condition: Homo sapiens, K5
Description: SANGER: Inhibition of human K5 cell growth in a cell viability assay.
measure.name: IC50

Illustrative cases are given below, each with its answer.
> print(dat)
                            smiles.notation  measure.name  data.value
1  C[C@]1(O)C[C@@H](c2nc(-c3ccc4ccc(-c5ccccc5)nc4c3)c3c(N)nccn32)C1          IC50   > 2.56 µM
2             CCc1nc(N)nc(N)c1-c1ccc(Cl)cc1          IC50     > 20 µM
3                     COC(=O)CNC(=O)C(=O)OC          IC50      160 µM
4  Cc1cc([C@@H](C)Nc2ccccc2C(=O)O)c2nc(N3CCOCC3)cc(=O)n2c1          IC50   > 5.12 µM

Then this molecule:
Please report the recorded IC50 for Cc1cc(Nc2cc(N3CCN(C)CC3)nc(Sc3ccc(NC(=O)C4CC4)cc3)n2)n[nH]1 . > 2 µM

---

System: EVSA-T
procedure.text: cells
Type: functional, cell-based, Homo sapiens
condition: Homo sapiens, EVSA-T
Description: SANGER: Inhibition of human EVSA-T cell growth in a cell viability assay.
measure.name: IC50

compound	IC50
C=CCc1cccc(/C=N/NC(=O)CN2CCN(Cc3ccccc3)CC2)c1O [PAC-1]	> 2.56 µM
CO[C@H]1C[C@@H]2CC[C@@H](C)[C@@](O)(O2)C(=O)C(=O)N2CCCC[C@H]2C(=O)O[C@H]([C@H](C)C[C@@H]2CC[C@@H](O)[C@H](OC)C2)CC(=O)[C@H](C)/C=C(\C)[C@@H](O)[C@@H](OC)C(=O)[C@H](C)C[C@H](C)/C=C/C=C/C=C/1C [SIROLIMUS]	> 0.1 µM
Cn1cncc1[C@@](N)(c1ccc(Cl)cc1)c1ccc2c(c1)c(-c1cccc(Cl)c1)cc(=O)n2C [TIPIFARNIB]	> 16 µM
O=C(/C=C/c1ccccc1)NC(NC(=S)Nc1cccc2cccnc12)C(Cl)(Cl)Cl (stereo unspecified) [SALUBRINAL]	12.9 µM
CNC(=O)c1cc(Oc2ccc(NC(=O)Nc3ccc(Cl)c(C(F)(F)F)c3)cc2)ccn1 [SORAFENIB]	> 4 µM

Form field: IC50 recorded for C[C@]1(O)C[C@@H](c2nc(-c3ccc4ccc(-c5ccccc5)nc4c3)c3c(N)nccn32)C1 [LINSITINIB] with EVSA-T (enter value) > 2.56 µM

---

System: HOP-62;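 also: cell growth inhibition determined with a viability assay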
procedure.text: cells
Assay type: functional, cell-based, Homo sapiens
condition: Homo sapiens, HOP-62
Description: SANGER: Inhibition of human HOP-62 cell growth in a cell viability assay.
I'd be grateful if you could share measured IC50 for these entries.
Hey, just the number and the unit after it is fine.

Illustrative cases are given below, each with its answer.
compound	IC50
COc1cc([C@@H]2c3cc4c(cc3[C@@H](O[C@@H]3O[C@@H]5CO[C@@H](C)O[C@H]5[C@H](O)[C@H]3O)[C@H]3COC(=O)[C@H]23)OCO4)cc(OC)c1O [ETOPOSIDE]	524 nM
COC(=O)CNC(=O)C(=O)OC	167000 nM

Then this compound:
Please report the recorded IC50 for C=CCc1cccc(/C=N/NC(=O)CN2CCN(Cc3ccccc3)CC2)c1O [PAC-1] . 2540 nM

---

I'd be grateful if you could share measured IC50 for these entries.
System: KU-19-19
procedure.text: cells
Assay type: functional, cell-based, Homo sapiens
condition: Homo sapiens, KU-19-19
Description: SANGER: Inhibition of human KU-19-19 cell growth in a cell viability assay.

Illustrative cases are given below, each with its answer.
> print(dat)
                                   compound  data.value
1  Cc1cnc(-c2cnc(NCCNc3ccc(C#N)cn3)nc2-c2ccc(Cl)cc2Cl)[nH]1   > 2560 nM
2  Nc1ccn([C@@H]2O[C@H](CO)[C@@H](O)[C@@H]2O)c(=O)n1   > 2000 nM
3  COc1cc(F)c(F)c(Nc2ccc(I)cc2F)c1NS(=O)(=O)C1(CC(O)CO)CC1 (centres undefined)      366 nM

Then this compound:
Please report the recorded IC50 for C[C@]1(O)C[C@@H](c2nc(-c3ccc4ccc(-c5ccccc5)nc4c3)c3c(N)nccn32)C1 . > 2560 nM

---

I'd be grateful if you could share measured IC50 for these entries.
System: LC-2-ad
procedure.text: cells
Type: functional, cell-based, Homo sapiens
condition: Homo sapiens, LC-2-ad
Description: SANGER: Inhibition of human LC-2-ad cell growth in a cell viability assay.

Illustrative cases are given below, each with its answer.
> print(dat)
                                   molecule  data.value
1  C[C@]1(O)C[C@@H](c2nc(-c3ccc4ccc(-c5ccccc5)nc4c3)c3c(N)nccn32)C1 [LINSITINIB]     1.74 µM
2  Cc1ccc(Nc2nccc(N(C)c3ccc4c(C)n(C)nc4c3)n2)cc1S(N)(=O)=O [PAZOPANIB]      > 8 µM
3  CC1=C2C[C@H]3[C@@H](CC=C4C[C@@H](O)CC[C@@]43C)[C@@H]2CC[C@]12O[C@@H]1C[C@H](C)CN[C@H]1[C@H]2C [CYCLOPAMINE]     > 16 µM

Then this molecule:
Please report the recorded IC50 for Cn1cc(C2=C(c3ccc(Cl)cc3Cl)C(=O)NC2=O)c2ccccc21 [SB-216763] . > 10 µM

---

I'd be grateful if you could share measured pIC50 for these entries.
Test system: TGBC24TKB
procedure.text: cells
Format: functional, cell-based, Homo sapiens
condition: Homo sapiens, TGBC24TKB
Description: SANGER: Inhibition of human TGBC24TKB cell growth in a cell viability assay.
One number for each entry, as −log10 of the molar value.

Illustrative cases are given below, each with its answer.
smiles.notation	test.target	pIC50
COc1ccc(-c2ccc3c(N4CCOC[C@@H]4C)nc(N4CCOC[C@@H]4C)nc3n2)cc1CO	TGBC24TKB	5.73
Nc1ccn([C@@H]2O[C@H](CO)[C@@H](O)[C@@H]2O)c(=O)n1	TGBC24TKB	5.73
C[C@]1(O)C[C@@H](c2nc(-c3ccc4ccc(-c5ccccc5)nc4c3)c3c(N)nccn32)C1	TGBC24TKB	5.82

Then this compound:
Please report the recorded pIC50 for CO[C@H]1C[C@@H]2CC[C@@H](C)[C@@](O)(O2)C(=O)C(=O)N2CCCC[C@H]2C(=O)O[C@H]([C@H](C)C[C@@H]2CC[C@@H](O)[C@H](OC)C2)CC(=O)[C@H](C)/C=C(\C)[C@@H](O)[C@@H](OC)C(=O)[C@H](C)C[C@H](C)/C=C/C=C/C=C/1C . 8.26

---

I'd be grateful if you could share measured IC50 for these entries.
Test system: VM-CUB-1;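 also: cell viability assay measuring growth inhibition of the human VM-CUB-1 cell line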
procedure.text: cells
Type: functional, cell-based
condition: Homo sapiens
Description: SANGER: Inhibition of human VM-CUB-1 cell growth in a cell viability assay.
One number for each entry, in nM.

compound	test.target	output.unit	data.value
COc1cc([C@@H]2c3cc4c(cc3[C@@H](O[C@@H]3O[C@@H]5CO[C@@H](C)O[C@H]5[C@H](O)[C@H]3O)[C@H]3COC(=O)[C@H]23)OCO4)cc(OC)c1O [ETOPOSIDE]	VM-CUB-1	nM	2580

Then this compound:
Please report the recorded IC50 for Nc1ccn([C@@H]2O[C@H](CO)[C@@H](O)[C@@H]2O)c(=O)n1 . 533

---

System: ACN;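 also: growth inhibition of the human ACN cell line, read out via cell viability testing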
procedure.text: cells
Format: functional, cell-based, Homo sapiens
condition: Homo sapiens, ACN
Description: SANGER: Inhibition of human ACN cell growth in a cell viability assay.
measure.name: IC50

> print(dat)
                            smiles.notation  data.value
1   O=C1N=C(NCc2cccs2)S/C1=C\c1ccc2ncccc2c1      > 5 µM
2  Cc1cc([C@@H](C)Nc2ccccc2C(=O)O)c2nc(N3CCOCC3)cc(=O)n2c1   > 5.12 µM

Please report the recorded IC50 for C=CCc1cccc(/C=N/NC(=O)CN2CCN(Cc3ccccc3)CC2)c1O . 1.79 µM

---

I'd be grateful if you could share measured IC50 for these entries.
System: JAR;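 also: growth inhibition of human JAR cells determined with a cell viability assay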
procedure.text: cells
Assay type: functional, cell-based, Homo sapiens
condition: Homo sapiens, JAR
Description: SANGER: Inhibition of human JAR cell growth in a cell viability assay.

molecule	data.value
CO[C@H]1C[C@@H]2CC[C@@H](C)[C@@](O)(O2)C(=O)C(=O)N2CCCC[C@H]2C(=O)O[C@H]([C@H](C)C[C@@H]2CC[C@@H](O)[C@H](OC)C2)CC(=O)[C@H](C)/C=C(\C)[C@@H](O)[C@@H](OC)C(=O)[C@H](C)C[C@H](C)/C=C/C=C/C=C/1C	> 100 nM

For every item in the list below, what is its measured IC50?
1. COc1ccc(-c2ccc3c(N4CCOC[C@@H]4C)nc(N4CCOC[C@@H]4C)nc3n2)cc1CO
2. CS(=O)(=O)CCNCc1ccc(-c2ccc3ncnc(Nc4ccc(OCc5cccc(F)c5)c(Cl)c4)c3c2)o1
3. O=C(c1cc(Cc2n[nH]c(=O)c3ccccc23)ccc1F)N1CCN(C(=O)C2CC2)CC1
4. O=C(/C=C/c1ccccc1)NC(NC(=S)Nc1cccc2cccnc12)C(Cl)(Cl)Cl (stereo unspecified)
5. Cc1cc(Nc2cc(N3CCN(C)CC3)nc(Sc3ccc(NC(=O)C4CC4)cc3)n2)n[nH]1

> 2000 nM
> 2000 nM
> 5000 nM
> 16000 nM
> 2000 nM
